Reported pIC50 values for a set of molecules
Target: UniProt P15917
Sequence (P15917 34-809 limits assumed): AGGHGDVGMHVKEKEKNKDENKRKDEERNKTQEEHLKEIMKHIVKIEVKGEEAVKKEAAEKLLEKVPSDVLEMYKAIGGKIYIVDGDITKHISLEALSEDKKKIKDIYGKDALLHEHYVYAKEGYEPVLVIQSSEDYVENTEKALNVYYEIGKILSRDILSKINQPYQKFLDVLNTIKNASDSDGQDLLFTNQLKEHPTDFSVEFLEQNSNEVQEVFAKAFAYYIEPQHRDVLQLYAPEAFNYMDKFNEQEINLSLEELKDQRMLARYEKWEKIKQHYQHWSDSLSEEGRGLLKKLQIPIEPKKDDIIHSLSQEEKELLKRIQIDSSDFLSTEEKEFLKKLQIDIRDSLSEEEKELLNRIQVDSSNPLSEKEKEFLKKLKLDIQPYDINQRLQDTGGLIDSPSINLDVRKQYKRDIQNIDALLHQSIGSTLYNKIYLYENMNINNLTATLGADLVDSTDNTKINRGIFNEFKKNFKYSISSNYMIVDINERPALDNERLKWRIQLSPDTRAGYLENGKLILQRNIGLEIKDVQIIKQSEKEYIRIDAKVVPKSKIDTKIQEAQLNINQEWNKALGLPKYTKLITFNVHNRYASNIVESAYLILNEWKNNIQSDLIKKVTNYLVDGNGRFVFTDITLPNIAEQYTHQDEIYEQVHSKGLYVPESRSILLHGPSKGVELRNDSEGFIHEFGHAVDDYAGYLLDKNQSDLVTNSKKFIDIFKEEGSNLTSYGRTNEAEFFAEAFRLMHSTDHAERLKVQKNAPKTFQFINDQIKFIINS
pIC50: −log10 of the molar value.

For orientation, consider the following solved cases.
| MOLECULE | pIC50 |
| --- | --- |
| Fc1ccc(-c2cc3ccc(C4=NCCN4)cc3[nH]2)cc1 [Compound 40c] | 4.40 |
| N=C(N)c1ccc2cc(-c3ccc(F)cc3)[nH]c2c1 [Compound 40b] | 4.32 |

input: Looking for the measured pIC50 of COc1ccc(-c2cc3ccc(C4=NCCN4)cc3[nH]2)cc1 [Compound 43c] , can you help?
output: 4.21

input: What does the data say about its pIC50? Entry: `NC(=O)c1ccc2cc(-c3ccc(F)cn3)sc2c1`
output: < 4.00

input: If you can, please state the reported pIC50 value of COc1ccc(-c2cc3ccc(C(=N)N)cc3[nH]2)cc1 [Compound 43b] .
output: < 4.00

input: Please report the recorded pIC50 for NC(=O)c1ccc2cc(-c3ccc(F)cc3)[nH]c2c1 [Compound 40a] .
output: < 4.00

input: Dear colleague, I am looking for the recorded pIC50 of the following molecule: `N#Cc1ccc2cc(-c3ccc(F)cc3)[nH]c2c1`
output: < 4.00

input: I have this molecule here, `NCCNc1ccc(-c2cc3ccc(C4=NCCN4)cc3s2)nc1` , and I need its recorded pIC50.
output: < 4.00

input: Give its pIC50 value. Item: COc1ccc(-c2cc3ccc(C(N)=O)cc3[nH]2)cc1 [Compound 43a]
output: < 4.00

====

Biological target: BoNT/A LC (Clostridium botulinum)
Sequence (P0DPI0 2-448 limits assumed): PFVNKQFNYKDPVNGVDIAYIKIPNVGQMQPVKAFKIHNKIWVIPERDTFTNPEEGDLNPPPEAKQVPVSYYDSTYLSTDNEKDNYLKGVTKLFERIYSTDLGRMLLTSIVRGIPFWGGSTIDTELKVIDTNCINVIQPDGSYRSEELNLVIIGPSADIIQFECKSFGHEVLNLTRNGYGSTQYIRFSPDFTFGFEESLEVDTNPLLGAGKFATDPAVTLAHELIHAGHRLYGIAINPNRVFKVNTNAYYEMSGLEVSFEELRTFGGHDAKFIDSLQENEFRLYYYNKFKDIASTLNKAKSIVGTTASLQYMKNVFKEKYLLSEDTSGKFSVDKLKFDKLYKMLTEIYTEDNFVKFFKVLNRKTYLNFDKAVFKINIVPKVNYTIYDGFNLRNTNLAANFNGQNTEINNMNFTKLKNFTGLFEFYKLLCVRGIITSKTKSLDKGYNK
Experiment: biochemical
PROPERTY_LABEL: IC50 (µM)
Respond numerically; units are µM and should not be typed.

input: Could you share which IC50 value was measured for c1cc(-c2cc3ccc(C4=NCCN4)cc3s2)ccc1C1=NCCN1 [Compound 46a] ?
output: 28
